ASSAY_TEXT: Plasma and urine pharmacokinetics (HPLC-UV) in patients after 60-min IV infusion
Format: in vivo, human
CONDITION: human, plasma, intravenous, 10 mg, patient no. 15; 10 mg m-2; day 1 course 1; two-compartment model
VALUE_KIND: AUC
Give me the value, and tack the unit on after it.

IN: Could you tell me which AUC is on file for C[C@@](O)(/C=C/[C@H]1CC=CC(=O)O1)[C@@H](C[C@@H](O)\C=C/C=C\C=C\CO)OP(=O)(O)O [fostriecin] ?
OUT: 3770 ng·h/mL

---

ASSAY_TEXT: Plasma and urine pharmacokinetics (HPLC-UV) in patients after 60-min IV infusion
Format: in vivo, human
CONDITION: human, plasma, intravenous, 4 mg, patient no. 7; 4 mg m-2; day 1 course 1; observed value
VALUE_KIND: Cmax (µg/mL)
Numbers only; they are read as µg/mL.

IN: Could you tell me which Cmax is on file for "C[C@@](O)(/C=C/[C@H]1CC=CC(=O)O1)[C@@H](C[C@@H](O)\C=C/C=C\C=C\CO)OP(=O)(O)O" ?
OUT: 0.94
